Source: paper PMC4118853

- ASSAYED TARGET: T1, E. coli SSB (single-stranded DNA binding protein), wild type (E. coli, UniProt P0AGE0 1-178)
- T1 construct: also called wt SSB; source: purified as described [13]
- T1 sequence (P0AGE0 whole entry): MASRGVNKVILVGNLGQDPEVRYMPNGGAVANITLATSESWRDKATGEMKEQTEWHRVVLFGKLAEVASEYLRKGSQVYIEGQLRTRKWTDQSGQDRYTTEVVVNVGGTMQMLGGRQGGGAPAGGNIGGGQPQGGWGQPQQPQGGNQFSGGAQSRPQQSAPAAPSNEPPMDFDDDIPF
- TEST PROTOCOL: far-Western; purified SSB wt or mutant (0.5-5 µg) separated on 15% SDS-PAGE, blotted to PVDF, probed with 20-30 µg YbcN or Orf fused to MBP or GST; detected with anti-MBP or anti-GST antibodies
- MEASUREMENT SETUP: both partners purified

BINDER | binding result
MBP-Orf W137A (natural protein, bacteriophage λ, Orf (NinB) of bacteriophage λ with W137A; Mutant derivative in pMALc2; source: E. coli BL21-AI carrying the pMALc2 construct, purified (amylose) as described [13]) MKKLTFEIRSPAHQQNAIHAVQQILPDPTKPIVVTIQERNRSLDQNRKLWACLGDVSRQVEWHGRWLDAESWKCVFTAALKQQDVVPNLAGNGFVVIGQSTSRMRVGEFAELLELIQAFGTERGVKWSDEARLALEAKARWGDRAA | binds
